# TEST DETAILS: Pharmacokinetics of BC-4 and BC-5 in mouse plasma and brain
# Assay type: in vivo
# CONDITIONS: mouse, brain; Balb/c mice, single oral dose 5 mg/kg, 180 min; read-out: Brain level, Mean (4) ± SE
QUANTITY MEASURED: concentration at 180 min (ng/g)
Form entry: value (ng/g) — number only.

[ask] Supply concentration at 180 min value. Item: COc1ccc(/C=C/c2cc(OC)cc(B(O)O)c2)cc1 [VMY-BC-1]
[reply] 169

----------
# TEST DETAILS: Plasma vs tumor PK in MDA-MB-231 xenograft mice
# Format: in vivo, athymic nude mice
# CONDITIONS: athymic nude, mouse; Plasma, oral 75 mg/kg
# Protocol: FIGS. 10A and 10B are graphs showing plasma (FIG. 10A) and tumor (FIG. 10B) concentrations of VMY-BC-1 in MDA-MB-231 xenograft mice administered 75 mg/kg VMY-BC-1. At the end of the study, brain and plasma samples were collected for drug concentration. Tumor tissues were collected for immunohistochemistry, Western blot, and bioanalysis. Statistical analysis of tumor growth in the control and treated groups was performed by Student's T test using GraphPad Prism (Ver. 5.03). […]
QUANTITY MEASURED: AUC(0-t) (ng·h/mL)
Form entry: value (ng·h/mL) — number only.

[ask] Supply AUC(0-t) value. Item: `COc1ccc(/C=C/c2cc(OC)cc(B(O)O)c2)cc1`
[reply] 32200

----------
# TEST DETAILS: Mouse plasma protein binding (in vitro binding study)
# Format: in vitro ADME, CD1 mouse
# CONDITIONS: CD1, mouse, mouse plasma
# Experimental: Free drug fraction in brain and plasma compartment was determined in vitro (Table 7). Brain to plasma (B/P) ratio was also determined in vivo (Table 8).
QUANTITY MEASURED: recovery
In your response, the unit should come after the numeric value.

[ask] Supply recovery value. Item: `COc1ccc(/C=C/c2cc(OC)cc(B(O)O)c2)cc1`
[reply] 89.3%

----------
# TEST DETAILS: Pharmacokinetics of BC-2 and BC-3 in mouse plasma and brain
# Format: in vivo, mice
# CONDITIONS: Brain, single oral dose 5 mg/kg
QUANTITY MEASURED: T½ (min)
Form entry: value (min) — number only.

[ask] Supply T½ value. Item: `COc1cc(/C=C/c2ccc(F)cc2)cc(B(O)O)c1`
[reply] 33.8

----------
# Test system: GBM8
# TEST DETAILS: GBM cell viability, Alamar blue, 72 hours
# Type: cell-based
# CONDITIONS: GBM8, patient-derived cell line
# Lookup of reported pIC50 keyed by entry
Note on units: pIC50 is unitless, being -log10 of a concentration expressed in mol/L.

[ask] # return pIC50 for Oc1ccc(C=Cc2cc(O)cc(O)c2)cc1 [Resveratrol, resveratrol, reference compound] , test system: GBM8
[reply] 4.58

[ask] # return pIC50 for `COc1ccc(/C=C/c2cc(OC)cc(B(O)O)c2)cc1` , test system: GBM8
[reply] 5.03

----------
# TEST DETAILS: Pharmacokinetics of BC-2 and BC-3 in mouse plasma and brain
# Format: in vivo, mice
# CONDITIONS: Plasma, single oral dose 5 mg/kg
QUANTITY MEASURED: T½ (min)
Form entry: value (min) — number only.

[ask] Supply T½ value. Item: COc1cc(/C=C/c2ccc(F)cc2)cc(B(O)O)c1 [BC-3]
[reply] 32.3
